Ref: patent US5504244A

Recorded inhibition at 100 µM, one value per entry.
- System: 5-HETE biosynthesized by glycogen-stimulated polymorphonuclear leucocytes (PMNs)
- Protocol: Hydroxyacid Profile Assay (HPA): inhibition of 5-HETE synthesis in glycogen-elicited rabbit PMNs
- Format: cell-based
- Measurement Conditions: Oryctolagus cuniculus, Leucocyte, 100 μM, 5-HETE synthesis, read-out: Percent Inhibition (100 μM)
- Description: As previously noted 5-HETE biosynthesis serves as a marker for arachidonic acid metabolism via the 5-lipoxygenase pathway which produces (poly)hydroxyeicosatetraenoic acids and the potent bronchoconstrictor and vasoactive leukotrienes LTC4, LTD4 and LTE4. […] After concentration of the organic phase, the tubes are vortexed and stored covered on ice. […] Based on the count, the number of μl containing 1×10^5 cpm is calculated. […] The remaining fluid in the tube is measured via syringe and noted. […]

Some molecules with known inhibition at 100 µM results, for comparison:
                                   molecule  result
0  CCCCCc1ccc(C(=O)Cc2cccc(C(=O)O)c2)cc1 [Example 15, 3-(4-pentylphenacyl)benzoic acid]     78%
1  CCCCCCCc1ccc(C(=O)CC(C)(C)CC(=O)O)cc1 [Example 24]     51%

May I ask what inhibition at 100 µM has been recorded for CCCCCCCCc1ccc(C(=O)Cc2cccc(C(=O)O)c2)cc1 [Example 19, 3-(4-n-Octylphenacyl)benzoic acid] ?
< 44%

Now the same for CCCCCCCc1ccc(C(=O)[C@@H]2CCCC[C@H]2C(=O)O)cc1 (relative stereo) [Example 23]
70%

---

inhibition at 75 µM values by entry
- Tested on: guinea pig ileal strips
- Protocol: Modified Schultz-Dale Assay: inhibition of antigen-induced anaphylactic contraction of passively sensitized ileal strips
- Assay type: cell-based
- Measurement Conditions: Cavia porcellus; 75 μM, added at peak of contraction after antigen; read-out: Postchallenge mean percent inhibition
Respond with the bare value in %.

Quick one: inhibition at 75 µM of CCCCCCOc1ccc(C(=O)c2cccc(C(=O)O)c2)c(C)c1 [Example 29] ?
38

Next up: CCCCOc1cc(OC)ccc1C(=O)c1cccc(C(=O)O)c1 [Example 28]
35

Consider next the compound CCCCCCCc1ccc(C(=O)[C@@H]2CCCC[C@H]2C(=O)O)cc1 (relative stereo) [Example 23] in the same way.
76

Repeat for the following compound: CCCCCCCc1ccc(C(=O)CCCCC(=O)O)cc1N [Example 8]
48

Moving on to O=C(O)c1cccc(C(=O)c2ccc(C3CCCCC3)cc2)c1 [Example 35, 3-(4-Cyclohexylbenzoyl)benzoic acid]
43

Queued: CCCCCCCc1ccc(C(=O)CC(C)(C)CC(=O)O)cc1 [Example 24]
43

---

- System: 5-HETE biosynthesized by glycogen-stimulated polymorphonuclear leucocytes (PMNs)
- Protocol: Hydroxyacid Profile Assay (HPA): inhibition of 5-HETE synthesis in glycogen-elicited rabbit PMNs
- Type: cell-based
- Measurement Conditions: Oryctolagus cuniculus, Leucocyte, 100 μM, 5-HETE synthesis, read-out: Percent Inhibition (100 μM)
Label MET for high-side inhibition at 100 µM (at or above 80%) and NOT MET for low-side inhibition at 100 µM (below it).

Below are worked cases with known answers.
>>> print(df.to_string())
                                   compound  classification
0  CCCCCCCCCc1ccc(C(=O)[C@@H]2CCCC[C@H]2C(=O)O)cc1 (relative stereo) [Example 32]             MET
1  CCCCCCCCCCc1ccc(C(=O)CCCCC(=O)O)cc1 [Example 10, 5-(4-n-Decylbenzoyl)pentanoic acid]             MET
2  CCCCCCCc1ccc(C(=O)CCCC(=O)O)cc1 [Example 34, 4-(4-n-Heptylbenzoyl)butanoic acid]         NOT MET
3  CCCCCCCc1ccc(C(=O)CCCCC(=O)O)cc1N [Example 8]         NOT MET
4  CCCCOc1ccc(C(=O)c2cccc(C(=O)O)c2)c(OC)c1 [Example 25]         NOT MET

For this compound, is measured inhibition at 100 µM 80% or higher? CCCCCCCCCCCCCCc1ccc(C(=O)CCCCC(=O)O)cc1 [Example 11, 5-(4-n-Tetradecylbenzoyl)pentanoic acid]
NOT MET

CCCCCCCCc1ccc(C(=O)CCCCC(=O)O)cc1 [Example 6, 5-(4-n-Octylbenzoyl)pentanoic acid] ?
NOT MET

---

- System: 5-HETE biosynthesized by glycogen-stimulated polymorphonuclear leucocytes (PMNs)
- Protocol: Hydroxyacid Profile Assay (HPA): inhibition of 5-HETE synthesis in glycogen-elicited rabbit PMNs
- Assay type: cell-based
- Measurement Conditions: Oryctolagus cuniculus, Leucocyte, 100 μM, 5-HETE synthesis, read-out: Percent Inhibition (100 μM)
Each entry below carries its reported inhibition at 100 µM.
Response body: numeric value in %, unit text excluded.

                                   compound  recorded_number
0  COc1ccc(C(=O)c2cccc(C(=O)O)c2)c(O)c1 [Example 27]               31
1  CCCCCCOc1ccccc1C(=O)CCCCC(=O)O [Example 13, 5-(2-n-Hexyloxybenzoyl)pentanoic acid]               64
2  CCCCOc1ccc(C(=O)CCCCC(=O)O)cc1 [Example 33, 5-(4-n-Butoxybenzoyl)pentanoic acid]               49

Tell me the measured inhibition at 100 µM of CCCCCCOc1ccc(C(=O)c2cccc(C(=O)O)c2)c(C)c1 [Example 29] , please.
88

Same read-out for CCCCCCCc1ccc(C(=O)Cc2cccc(C(=O)O)c2)cc1 [Example 18, 3-(4-n-Heptylphenacyl)benzoic acid] ?
73

Same for CCCCCCCc1ccc(C(=O)CCCCC(=O)O)cc1 [Example 1, 5-(4-n-Heptylbenzoyl)pentanoic acid]
78

Lookup CCCCCCOc1ccc(C(=O)CCCCC(=O)O)cc1 [Example 12, 5-(4-n-Hexyloxybenzoyl)pentanoic acid]
75

Would you kindly repeat that for CCCCCc1ccc(C(=O)CCCCC(=O)O)cc1 [Example 2, 5-(4-n-Pentylbenzoyl)pentanoic acid] ?
59

Input CCCCCCCc1ccc(C(=O)CCCCC(=O)O)cc1[N+](=O)[O-] [Example 7]
84

---

- Tested on: guinea pig ileal strips
- Protocol: Modified Schultz-Dale Assay: inhibition of antigen-induced anaphylactic contraction of passively sensitized ileal strips
- Type: cell-based
- Measurement Conditions: Cavia porcellus; 75 μM, added at peak of contraction after antigen; read-out: Postchallenge mean percent inhibition
Quantity Name: inhibition at 75 µM (%)
Dear colleague, please return just the value in %, with no unit written.

Take a look at these entries with their results.
>>> df
                                   compound          target_of_assay        quantity_name  recorded_number
0  CCCCOc1ccc(C(=O)c2cccc(C(=O)O)c2)c(O)c1 [Example 26]  guinea pig ileal strips  inhibition at 75 µM               59
1  CCCCCCOc1cc(C)ccc1C(=O)c1cccc(C(=O)O)c1 [Example 31]  guinea pig ileal strips  inhibition at 75 µM               59
2  CCCCCCCCc1ccc(C(=O)Cc2cccc(C(=O)O)c2)cc1 [Example 19, 3-(4-n-Octylphenacyl)benzoic acid]  guinea pig ileal strips  inhibition at 75 µM               30

Suppose we examine the compound CCCCCCCCCc1ccc(C(=O)[C@@H]2CCCC[C@H]2C(=O)O)cc1 (relative stereo) [Example 32] ; what inhibition at 75 µM value has been reported?
20

---

Reported values of IC50 for individual entries
- Tested on: guinea pig ileal strips
- Protocol: Modified Schultz-Dale Assay: inhibition of antigen-induced anaphylactic contraction of passively sensitized ileal strips
- Assay type: cell-based
- Measurement Conditions: Cavia porcellus; added at peak of contraction after antigen; value in parentheses; read-out: Postchallenge IC50
- Experimental: In the classic Schultz-Dale assay, guinea pigs are sensitized with a known immunogen or passively sensitized with guinea pig antiserum to the immunogen, strips of ilea are recovered, and the extent of their contraction in response to a challenge exposure to the same antigen is observed as a measure of anaphylactic response. […] Two types of data are derived from the above protocol. […] Prechallenge inhibition by the reference standard is also determined in each experiment as a positive control. […]
Please give a number only; it is taken to be in µM.

                                       mol  quantity_name  recorded_number
0  CCCCCCCc1ccc(C(=O)Cc2cccc(C(=O)O)c2)cc1           IC50               51

Look up IC50 with guinea pig ileal strips for this molecule: CCCCCCCc1ccc(C(=O)CCCCC(=O)O)cc1
48

Param item: CCCCCCOc1ccccc1C(=O)CCCCC(=O)O
45

Another molecule to look at: CCCCCCCc1ccc(C(=O)CC(C)(C)CC(=O)O)cc1
40

And the next one, CCCCCCCc1ccc(C(=O)Cc2ccccc2C(=O)O)cc1 ?
33

---

compounds and their reported inhibition at 75 µM
- Tested on: guinea pig ileal strips
- Protocol: Modified Schultz-Dale Assay: inhibition of antigen-induced anaphylactic contraction of passively sensitized ileal strips
- Format: cell-based
- Measurement Conditions: Cavia porcellus; 75 μM, added at peak of contraction after antigen; read-out: Postchallenge mean percent inhibition
Just the number in %, nothing appended.

I have this compound here, CCCCCCCc1ccc(C(=O)CCCCCC(=O)O)cc1 [Example 20, 6-(4-n-Heptylbenzoyl)hexanoic acid] , and I need its recorded inhibition at 75 µM.
3

Try the compound CCCCCCCc1ccc(C(=O)c2cccc(C(=O)O)c2)cc1 [Example 16, 3-(4-n-heptylbenzoyl)benzoic acid]
63

Another: CCCCCCCc1ccc(C(=O)Cc2ccccc2C(=O)O)cc1 [Example 17, 2-(4-n-Heptylphenacyl)benzoic acid]
100

// next record CCCCCCCc1ccc(C(=O)CCCC(=O)O)cc1 [Example 34, 4-(4-n-Heptylbenzoyl)butanoic acid]
39

Entry CCCCCc1ccc(C(=O)Cc2cccc(C(=O)O)c2)cc1 [Example 15, 3-(4-pentylphenacyl)benzoic acid] please
13

Next record, please: CCCCCCOc1ccccc1C(=O)CCCCC(=O)O [Example 13, 5-(2-n-Hexyloxybenzoyl)pentanoic acid]
43

Cool, now CCCCCCc1ccc(C(=O)CCCCC(=O)O)cc1 [Example 5, 5-(4-n-Hexylbenzoyl)pentanoic acid]
58
